- Tested on: A549/ATCC NSCLC
- procedure-details: NCI-60 one-dose screen, 48 h
- test-parameters: 10 µM unless noted
The panel holds about 83,000 compounds, 20% with a hit somewhere; the sample as a whole holds those more often. Calls of active or inactive are those of the source. Rule for the calls: active = growth percent below 10; inactive = the rest.
Respond using exactly one of the listed classes: active, inactive

Consider the worked cases shown below.
COc1cc2c(c(OC)c1OC)CCc1cnoc1-2 ... inactive
COc1ccc(-n2nc3c(c2-c2ccc(OC)c(OC)c2)-c2oncc2CC3)cc1 ... inactive
O=C1Cc2cc(CCN3CCN(CCOCCO)CC3)c(Cl)cc2N1Cc1ccc(-c2ccccc2-c2nn[nH]n2)cc1 ... inactive
CN1C(=O)/C(=C/c2nc(-c3cccc(F)c3)n3ccccc23)c2ccccc21 ... inactive

input: Tell me the assay call for `CCOc1nc(-c2ccccc2)cc2c(O)c(C(=O)n3nc(C)cc3C)[nH]c(=O)c12` please.
output: inactive

input: Tell me the assay call for CCOC(=O)C1=C(COCCN)NC(C)=C(C(=O)OC)C1c1ccccc1Cl (stereo not given) please.
output: inactive

input: Tell me the assay call for `COc1cc(C(=O)/C=C/c2cccnc2Nc2ccccc2)cc(OC)c1OC` please.
output: active

input: Tell me the assay call for `Cn1cc(-c2nc(-c3c[nH]c4ncccc34)cs2)c2cccnc21` please.
output: inactive

input: Tell me the assay call for `COc1ccc(Nc2ccnc(NCCCNc3ccnc4cc(Cl)ccc34)n2)cc1` please.
output: active

input: Tell me the assay call for `COc1ccc(Cn2cc3c(c2-c2ccccc2)CCc2cncnc2-3)cc1` please.
output: inactive

###

- System: T-47D breast
- procedure-details: NCI-60 one-dose screen, 48 h (100 = growth as untreated, 0 = no growth, -100 = all killed)
- test-parameters: 10 µM unless noted
About 83,000 compounds went through this panel and 20% of them were active in at least one assay; those are over-represented in the sample as a whole.
# binarize growth: threshold 20% inclusive, high side MET, low side NOT MET

Consider the worked cases shown below.
CSC1=Nc2c(c(C)c(-c3ccccc3)n2CCCN2CCCCC2)C2=NC(=O)C[C@H](C)N12 ... NOT MET
O=Nc1ccc(O)c(=O)cc1 ... NOT MET
CCOc1cccc(C2CC(=O)Nc3cc4c(cc32)OCO4)c1 (stereo not given) ... MET
Cc1cc(C)n(C(=O)c2nn(-c3ccc(Cl)cc3)cc2O)n1 ... MET

Consider the additional compound presented here.
input: Confirm if growth reported for the compound `COC(=O)[C@]12CC[C@@H](C)[C@H](C)[C@@H]1C1=CC[C@@H]3[C@@]4(C)C=C(O)C(=O)[C@@]5(C)COC(=C54)C[C@@]3(C)[C@]1(C)CC2` is 20% or above.
output: NOT MET

###

- Test system: NCI-H460 lung
- procedure-details: NCI-60 one-dose screen, 48 h
- test-parameters: 10 µM unless noted
About 83,000 compounds went through this panel and 20% of them were active in at least one assay; those are over-represented in the sample as a whole. Calls of active or inactive are those of the source. Rule for the calls: active = growth percent below 10; inactive = the rest.
Respond using exactly one of the listed classes: active, inactive

Consider the worked cases shown below.
C/C(=N\N1CC(=O)NC1=O)c1ccc([N+](=O)[O-])o1 ... inactive
NCCCc1nnc(CCC(=O)c2nc3ccccc3[nH]2)o1 ... inactive
O=C(/C=C/c1ccc(O)c(O)c1)N1CCN(c2ccc(Cl)cc2)CC1 ... inactive
CN1CCN(CC(=O)Nc2nc3c(s2)Nc2cc(Cl)c(Cl)cc2NC3=O)CC1 ... inactive
CO[C@H]1/C=C/O[C@@]2(C)Oc3c(C)c(O)c4c(O)c(c(/C=N/N5CCN(C)CC5)c(O)c4c3C2=O)NC(=O)/C(C)=C\C=C\C(C)[C@H](O)[C@@H](C)[C@@H](O)[C@@H](C)[C@@H](OC(C)=O)[C@@H]1C (some centres undefined) ... inactive

input: Tell me the assay call for `COc1cc(OC)c2sc(-c3ccc(-n4cncc4-c4ccc(N)cc4)cc3)nc2c1` please.
output: inactive

input: Tell me the assay call for CCOC(=O)C1=NN(c2ccc(Cl)cc2)C2C3N(c4ccc(Cl)cc4)N=C(C(=O)OCC)N3c3ccccc3N12 (centres undefined) please.
output: inactive

input: Tell me the assay call for `C[C@]12CC[C@@H]3c4ccc(O)c([N+](=O)[O-])c4CC[C@H]3[C@@H]1CC[C@@H]2NS(=O)(=O)c1cccc(Br)c1` please.
output: inactive

input: Tell me the assay call for `C/C(=N/N=C(N)N)c1ccc(Cl)cc1` please.
output: inactive

input: Tell me the assay call for `COc1ccc2c(c1)nc(N)c1c3ccccc3cn21` please.
output: inactive

input: Tell me the assay call for `CCN1C(=O)c2ccc3c4c(ccc(c24)C1=O)C(=O)N(CCCNCc1ccccc1OC)C3=O` please.
output: active

input: Tell me the assay call for `COc1cc(NC(=O)c2cc3ccccc3cc2O)c(OC)cc1Cl` please.
output: active

input: Tell me the assay call for `Cc1cc(NC(=O)c2ccc(N)cc2)ccc1N=Nc1ccc2c(O)c(N=Nc3ccc(Cl)c(S(=O)(=O)O)c3)c(S(=O)(=O)O)cc2c1` please.
output: inactive

input: Tell me the assay call for `NC(N)=NC(N)=NCCCc1ccccc1` please.
output: inactive

###

- Tested on: HS 578T breast
- procedure-details: NCI-60 one-dose screen, 48 h
- test-parameters: 10 µM unless noted
Compounds without any hit were thinned out: in the full panel of roughly 83,000, 20% have a hit. Calls of active or inactive are those of the source. The calls were made as follows: active = growth percent below 10; inactive = the rest.
Respond using exactly one of the listed classes: active, inactive

C[N+]1(CCC[N+]2(C)C[C@@H]3[C@H](C2)[C@@H]2C=C[C@H]3C2)CCOCC1 (stereo not given in full) ... inactive
S=c1[nH]nc2sc3ccccc3n12 ... inactive
COc1ccc(-c2nc3sccn3c2-c2ccnc(S(C)(=O)=O)n2)cc1 ... inactive
COc1ccc(CCN2CCCN3C2=Nc2ccccc2S3(=O)=O)cc1 ... inactive
CCOC(=O)C(C(C)=O)c1nc2sc3cc(Cl)ccc3n2c(=N)c1C#N (stereo not given) ... inactive
C=C(C)[C@@H]1C[C@H](O)Cc2cc(Cl)cc(Cl)c2N1 ... inactive
COc1ccc(-n2nnc(C(=O)O)c2-c2cc(OC)c(OC)c(OC)c2)cc1 ... inactive
C=C(C)[C@H]1CC/C(C)=C/CC[C@]2(C)O[C@H]2CC/C(C=O)=C\C1O (stereo not given in full) ... inactive
CCCc1cccc(CCC)c1O ... inactive
CC1(C)OC(=O)C(=Cc2ccccc2Br)C(=O)O1 ... inactive

input: Tell me the assay call for `O=C(Nc1cccc(-n2cc(-c3ccncc3)c(-c3ccc(O)c(Cl)c3)n2)c1)Nc1ccc(Cl)c(C(F)(F)F)c1` please.
output: active

input: Tell me the assay call for CC(=O)O[C@H]1C(=O)[C@@]2(C)C([C@H](OC(=O)c3ccccc3)[C@]3(O)C[C@H](OC(=O)[C@H](O)[C@@H](NC(=O)c4ccccc4)c4ccccc4)C(C)=C1C3(C)C)[C@]1(OC(C)=O)CO[C@@H]1C[C@@H]2O (stereo not given in full) please.
output: inactive

input: Tell me the assay call for `CCCCc1nc(Cl)c(CO)n1Cc1ccc(-c2ccccc2-c2nn[nH]n2)cc1` please.
output: inactive

input: Tell me the assay call for `COc1cc(/C=C/C(=O)Nc2cccnc2Nc2cc(OC)c(OC)c(OC)c2)cc(OC)c1OC` please.
output: inactive

input: Tell me the assay call for Nc1nc2ncc(CCNc3ccc(C(=O)NC(CCC(=O)O)C(=O)O)cc3)nc2c(=O)[nH]1 (stereo not given) please.
output: inactive

input: Tell me the assay call for `CC(C)[O-].CC(C)[O-].CN(CCN(C)Cc1cc(F)cc(F)c1[O-])Cc1cc(F)cc(F)c1[O-].[Ti+4]` please.
output: active

input: Tell me the assay call for `CC(C)(C)c1ccc(S(=O)(=O)O)s1` please.
output: inactive

input: Tell me the assay call for `O=C(Nc1nc(-c2ccc(Cl)cc2)cs1)c1cc(O)c(O)c(O)c1` please.
output: inactive

input: Tell me the assay call for `Cc1c(C(N)=O)sc2ncn(CC(=O)Nc3ccc(Cl)cc3)c(=O)c12` please.
output: inactive

###

- Tested on: 786-0 renal
- procedure-details: NCI-60 one-dose screen, 48 h
- test-parameters: 10 µM unless noted
- Protocol: Cells are grown in 96 well plates and exposed to the test compound for 48 hours. Compounds are tested at a single concentration, which is 10^-5 M for most compounds. The reported endpoint is percent growth (GI% or GIPRCNT), where numbers from 0 - 100% represent growth inhibition, and numbers from -100% - 0 represent cell death. For example, a value of 40 represents 60% growth inhibition. A value of 0 means no net growth occurred over the course of the experiment. […]
This is part of a sample that, as a whole, favours compounds with a hit. Of some 83,000 tested, about 20% had one in any assay. Activity calls are given as the source filed them. Rule for the calls: active = growth percent below 10; inactive = the rest.
Respond using exactly one of the listed classes: active, inactive

Consider the worked cases shown below.
COc1cc2c(C#N)n3c(c2cc1OC)C(=O)C(c1ccccc1)Oc1ccccc1-3 (stereo unspecified) ... inactive
CSc1ccc2c(c1)N(CCC1CCCCN1C)c1ccccc1S2 (stereo unspecified) ... inactive
O=NC1CC=CCC1c1ccccc1 (stereo unspecified) ... inactive
O=C(Nc1ccc(Cl)cc1)c1cc2c(cc1O)[nH]c1ccccc12 ... active
CN1C(=O)C(=Cc2cn(Cc3ccccc3)c3ccc(Br)cc23)C(=O)N(C)C1=O ... inactive
O=C(Cn1ccnc1)NC(c1ccccc1)c1ccccc1 ... inactive
CCCOc1ccc2c(c1)CC[C@@H]1[C@@H]2CC[C@@]2(C)[C@H]1CC[C@]2(C)O ... inactive
COC(=O)[C@]1(CCSC)N[C@H](c2cn(-c3ccccc3)nc2C)[C@@H]2C(=O)N(c3ccc(C)cc3)C(=O)[C@@H]21 ... inactive
CCCCCCCCSc1ncnc2c1ncn2CO ... inactive
COc1ccc(C(=O)COc2cccc(/C=C3\Oc4ccc5ccccc5c4C3=O)c2)cc1 ... inactive

input: Tell me the assay call for `COc1ccc2c(c1)C(=O)c1c-2c(OCCCN(C)C)nc2cc(Br)ccc12` please.
output: inactive

input: Tell me the assay call for `O=C(CCc1nnc2sc(Cc3ccccc3Cl)nn12)c1nc2ccccc2[nH]1` please.
output: inactive

input: Tell me the assay call for `O=[N+]([O-])c1ccc2c(c1)S(=O)c1cc([N+](=O)[O-])ccc1N2` please.
output: inactive

input: Tell me the assay call for `c1ccc2cc(C[n+]3ccn(CCCCCCCn4cc[n+](Cc5ccc6ccccc6c5)c4)c3)ccc2c1` please.
output: inactive

input: Tell me the assay call for `O=C(c1ccccc1)c1ccccc1Cl` please.
output: inactive

input: Tell me the assay call for `O=C1/C(=C/c2ccc([N+](=O)[O-])s2)Oc2ccc(Br)cc21` please.
output: active

input: Tell me the assay call for CO[C@H]1CC(O[C@@H]2/C(C)=C/C[C@@H]3C[C@@H](C[C@]4(CC[C@H](C)[C@@H](C5CCCCC5)O4)O3)OC(=O)[C@@H]3C=C(C)/C(=N/O)[C@H]4OC/C(=C\C=C\[C@@H]2C)[C@]43O)O[C@@H](C)C1O (stereo partly specified) please.
output: active

input: Tell me the assay call for `COc1cc(OC)c2cc(C(=O)O)c(=O)oc2c1` please.
output: inactive

input: Tell me the assay call for `CCCCCCCC/C=C\CCCCCCCCOc1ccccc1CC(=O)NCC[N+]1(C)CCCC1` please.
output: inactive

input: Tell me the assay call for `Cc1cc(CC(=O)O)n(C)c1C(=O)c1ccc(Cl)cc1` please.
output: inactive

input: Tell me the assay call for `NC(=O)N/N=C/c1ccc(Br)o1` please.
output: inactive

The reported numbers originate from PubChem BioAssay (NCI).
